# measurement.description: Determination of water solubility
# Format: physicochemical
# conditions.used: deionized water, water, thermodynamic from solid, pure aqueous formulation
recorded.metric: solubility at 2 h (µg/mL)
Your answer should be a plain number; it is taken to be in µg/mL.

The recorded solubility at 2 h for entry CC1=C(/C=C/C(C)=C/C=C/C(C)=C/C=C/C=C(C)/C=C/C=C(C)/C=C/C2=C(C)C(=O)C(OC(=O)CCC(=O)O)CC2(C)C)C(C)(C)CC(OC(=O)CCC(=O)O)C1=O (racemic) equals 8640

###

# measurement.description: Determination of water solubility
# Assay type: physicochemical
# conditions.used: olive oil/water/soybean lecithin emulsion, aqueous with cosolvent or surfactant or cyclodextrin, olive oil/water/soybean lecithin emulsion for oral gavage
recorded.metric: solubility

Looking up CC1=C(/C=C/C(C)=C/C=C/C(C)=C/C=C/C=C(C)/C=C/C=C(C)/C=C/C2=C(C)C(=O)C(OC(=O)CCC(=O)O)CC2(C)C)C(C)(C)CC(OC(=O)CCC(=O)O)C1=O (racemic) , I found its solubility recorded as ~50 mg/mL
